Numbers sourced from ChEMBL document CHEMBL3885861.

organism: Rattus norvegicus; assay: Open TG-GATES - Regimen: Daily Repeat; assay type: toxicity, organism-based, Sprague-Dawley; parameters: regimen Daily Repeat, gender Male, age 6 weeks; conditions: in vivo, po, 0 mg/kg, […], tissue Plasma, route gavage, dose level Control, time 7 day
attribute measured: IP (mg/dL)

compound="O=P1(N(CCCl)CCCl)NCCCO1 (stereo unspecified) [CYCLOPHOSPHAMIDE ANHYDROUS]" assay_result=7.9
compound=Cn1c(=O)c2c(ncn2C)n(C)c1=O assay_result=7.7
compound=C=CCO assay_result=6.9
compound=Cc1cnc(NC(=O)C2=C(O)c3ccccc3S(=O)(=O)N2C)s1 assay_result=7.3
compound=Cn1cnc([N+](=O)[O-])c1Sc1ncnc2nc[nH]c12 assay_result=6.6
compound=Cc1cccc(Nc2cc(Cl)nc(SCC(=O)O)n2)c1C assay_result=7.1
compound="COc1ccc(O)c(C(C)(C)C)c1.COc1ccc(O)cc1C(C)(C)C [BUTYLATED HYDROXYANISOLE]" assay_result=7
compound="CS(=O)(=O)Nc1ccc([N+](=O)[O-])cc1Oc1ccccc1 [NIMESULIDE]" assay_result=7
compound=O=C1CN(/N=C/c2ccc(-c3ccc([N+](=O)[O-])cc3)o2)C(O)=N1 assay_result=7.2
compound="COc1ccc(Cl)cc1C(=O)NCCc1ccc(S(=O)(=O)NC(=O)NC2CCCCC2)cc1 [GLYBURIDE]" assay_result=7.3
compound=O=C1NC(=O)C(c2ccccc2)(c2ccccc2)N1 assay_result=7.7
